Target: Pro-neuregulin-1, membrane-bound isoform (Homo sapiens) (UniProt Q02297)
Sequence (Q02297 whole entry, looked up, canonical isoform): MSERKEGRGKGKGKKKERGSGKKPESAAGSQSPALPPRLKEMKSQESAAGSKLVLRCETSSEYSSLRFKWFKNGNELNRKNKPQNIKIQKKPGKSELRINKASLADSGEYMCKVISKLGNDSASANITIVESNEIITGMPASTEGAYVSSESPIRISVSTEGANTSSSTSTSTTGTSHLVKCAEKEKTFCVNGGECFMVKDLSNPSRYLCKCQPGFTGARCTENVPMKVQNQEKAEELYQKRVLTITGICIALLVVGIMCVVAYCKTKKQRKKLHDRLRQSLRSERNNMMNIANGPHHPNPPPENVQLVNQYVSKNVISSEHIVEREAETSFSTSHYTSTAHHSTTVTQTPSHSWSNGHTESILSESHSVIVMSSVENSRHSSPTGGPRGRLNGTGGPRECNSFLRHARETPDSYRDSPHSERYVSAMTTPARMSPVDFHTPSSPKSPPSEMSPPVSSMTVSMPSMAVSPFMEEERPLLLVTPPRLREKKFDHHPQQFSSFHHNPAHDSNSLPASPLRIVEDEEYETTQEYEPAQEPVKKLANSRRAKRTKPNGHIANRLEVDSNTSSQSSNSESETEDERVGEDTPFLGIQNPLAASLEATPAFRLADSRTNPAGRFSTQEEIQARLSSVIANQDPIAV
Experiment: NRG1 binders on small-molecule microarrays, primary screen, psychiatric disease protein project, biochemical, small-molecule microarray, fluorescence 635/667 (AID 1075);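 also: score combines 667 nm spot fluorescence with signal to noise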
Conditions: NRG1 binding, 635 nm fluorescence, higher = more signal
Please respond with reported composite z-score for every item in the list.
Numbers only.

1. Cc1ccc(C(C)CC(O)C2C=CC3C(=O)N(c4ccccc4)C(=O)C3N2Nc2ccc(C#N)cc2)o1 (stereo unspecified)
1.88
2. C=CCNC(=O)[C@@H]1[C@H]2C(=O)O[C@H](c3ccccc3)[C@H](c3ccccc3)N2[C@H](c2ccc(OCCO)cc2)[C@@]12C(=O)N(C(=O)OCCOC)c1ccc(C#CCCO)cc12
1.24
3. COCCOC(=O)N1C(=O)[C@@]2(c3cc(C#CCC(C(=O)OC)C(=O)OC)ccc31)[C@H](c1ccc(O)cc1)N1[C@H](c3ccccc3)[C@H](c3ccccc3)OC(=O)[C@H]1[C@@H]2C(=O)NC[C@H](O)c1ccccc1
1.12
4. CCOC(=O)C[C@H]1[C@H](OC(=O)c2ccc(-c3ccccc3)cc2)[C@@H](NC(=O)Cc2ccc(OC)cc2)c2cc(OCCCO)ccc2N1C(=O)Cc1ccc(OC)cc1
0.243
5. COc1cc(NN2C(C(O)c3ccc(I)cc3)C=CC3C(=O)N(c4ccccc4)C(=O)C32)cc(OC)c1OC (stereo unspecified)
2.04

Next:
Lab note: `CC(C)(C)OC(=O)CC[C@]12N=C(c3ccc(OCCCO)cc3)O[C@H]1c1ccccc1N(Cc1ccccc1)C2=O` gave composite z-score of 0.457

* * *

Experiment: small-molecule binders of probe aNOTCH3, primary screen, biochemical, small-molecule microarray, 635/667 nm fluorescence (AID 1120);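 also: probe is a biotin-tagged antibody raised against NOTCH3 rather than NOTCH3 protein; score merges spot fluorescence near 667 nm with spot signal to noise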
Settings: higher = more signal
Please respond with reported composite z-score for every item in the list.
Answers are plain numbers.

# count of solved cases: 3
1) COC(=O)[C@@]1(Cc2ccc(OC)cc2)[C@H]2c3cc(C(=O)N4CCCC4)n(Cc4ccc(S(C)(=O)=O)cc4)c3C[C@H]2CN1C(=O)c1ccccc1
0.264
2) CC=CC(O)C1C=CC2C(=O)NC(=O)C2N1Nc1ccccn1 (centres undefined)
-0.0362
3) O=C1OCC=C[C@H]2OC34C=CCN(c5ccc6ccccc6c5)C(=O)[C@H]3N(CCCCCO)C(=O)[C@@H]4[C@@H]12 (some centres undefined)
-0.292

Next:
Lab note: `[N-]=[N+]=Nc1ccccc1C[C@]1(C(=O)O)N=C(c2ccc(OCCCO)cc2)O[C@H]1c1ccccc1` gave composite z-score of -0.0316

* * *

Assay: small-molecule microarray binders of probe aNog, primary screen, biochemical, biotinylated probe, 635/667 nm fluorescence (AID 1115);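 also: probe is biotinylated aNog protein used at 0.15 µg/mL for 1 h at 4 C; z-score combines 667 nm fluorescence of each spot with its signal to noise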
Settings: higher = more signal
Would you mind labelling by composite z-score? At or over 0.3 is 1.0, under is 0.0.

Input: Does the reported composite z-score for COc1cc(NN2C(C(O)c3ccc(I)cc3)C=CC3C(=O)N(c4ccccc4)C(=O)C32)cc(OC)c1OC (stereo unspecified) fall at or above the 0.3 mark?
Output: 1.0

* * *

Target: Calmodulin-1 (Homo sapiens) (UniProt P0DP23)
Experiment: calcium-bound CALM1 binders on microarrays, profiling panel, artefact control for SMM control-protein annotation, biochemical, small-molecule microarray, Cy5-labelled CALM1, plus calcium (AID 1112);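 also: score merges spot fluorescence with signal to noise from triplicate slides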
Conditions: Cy5-CALM1 binding fluorescence, higher = more signal
QUANTITY: composite z-score
Give bare numbers.

# count of solved cases: 3
1) CC(=O)NCCCC[C@@H]1NC(=O)[C@@H]2C[C@H](C(=O)NCCCCCCN)[C@H](c3cccc(OCCO)c3)N2C1=O
1.35
2) CC(C)c1ccc(NN2C(C(O)Cc3ccccc3)C=CC3C(=O)N(c4ccccc4)C(=O)C32)cc1 (centres undefined)
0.744
3) Cc1ccc(F)cc1S(=O)(=O)N[C@@H]1CCN(Cc2cccc3[nH]ccc23)C1
-1.03

Next:
Lab note: CN1C=C(C(=O)OCCS(C)(=O)=O)C(C(=O)OCCS(C)(=O)=O)=CC(c2ccc(CO)cc2)=CC1c1cccs1 (centres undefined) gave composite z-score of -0.388
